Test: Primary qHTS for inhibitors of La Crosse Virus (LACV) - induced cell death in SH-SY5Y cells (AID 1508616);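 also: top concentration of the series differs between compounds; higher means more rescue of cells from virus-induced death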
Settings: SH-SY5Y LACV cytopathicity rescue, ATP luminescence, 6 d; series mostly up to 9.63 µM
Records with an inconclusive call do not appear. Calls of active or inactive are those of the source. Calls follow the shape of the dose curve; as a rule, active = well fitted inhibition curve with a large enough effect; inconclusive = small, poorly fitted or top-dose-only effect; inactive = no such curve, though single readings can be large or run the other way.
Measured Endpoint: outcome

Recorded results for 8 molecules are shown here.
CCCN(CCC)[C@@H]1CCc2ccc(O)cc2C1 | inactive
O=S(=O)(O)C(F)(F)C(F)(F)C(F)(F)C(F)(F)C(F)(F)C(F)(F)C(F)(F)C(F)(F)F | inactive
OCCCBr | inactive
O=C(Cc1ccc(Cl)c(Cl)c1)N1CCCCC1CN1CCCC1 (centres undefined) | inactive
O=C(O)c1cc(Oc2ccc(C(F)(F)F)cc2Cl)ccc1[N+](=O)[O-] | inactive
CC(O)CN1CCN(CC(=O)[O-])CCN(CC(=O)[O-])CCN(CC(=O)[O-])CC1.[Gd+3] (centres undefined) | inactive
CN1C2CCC1CC(OC(=O)c1cc(Cl)cc(Cl)c1)C2 (centres undefined) | inactive
Nc1ccc(Sc2ccc(N)cc2)cc1 | inactive

Memo: ClC1=C(Cl)[C@]2(Cl)[C@@H]3[C@@H]4C[C@@H]([C@H]5O[C@@H]45)[C@@H]3[C@@]1(Cl)C2(Cl)Cl , reported outcome: inactive

====

Assay: NS1 protein of Zika virus - qHTS assay to identify small molecule inhibitors in human HEK 293 cells (AID 1347053); also: nearly all actives have a fitted effect of over 55% in size
Conditions: HEK293 ZIKV MR766 infection, NS1 TR-FRET, 24 h; series mostly up to 46.1 µM
Excerpt: National Center for Advancing Translational Sciences [NCATS] Johns Hopkins University School of Medicine The non-structural 1 (NS1) protein of zika virus is known to associate with the viral replication complex. This cell-based TR-FRET ZIKV NS-1 assay measures the increased NS-1 protein in human HEK 293 cells after a 24-hour Zika virus infection by a TR-FRET assay readout. […]
Records with an inconclusive call do not appear. Calls of active or inactive are those of the source. Calls follow the shape of the dose curve; as a rule, active = well fitted inhibition curve with a large enough effect; inconclusive = small, poorly fitted or top-dose-only effect; inactive = no such curve, though single readings can be large or run the other way.
One label from this list, please: Yes (active), No (inactive)

Worked examples follow.
Clc1cnc(Oc2ccc(Oc3ncc(Cl)cc3Cl)cc2)c(Cl)c1 | No
CC(C)N(CCNC(=O)CN1CCCC1=O)C(C)C | No

Record request — test call for CC1(C)CC/C(=C/c2ccc(Cl)cc2)C1(O)Cn1cncn1 (stereo not drawn)
No

Record lookup: outcome of this test for CCN(CC)C(=O)c1ccc(C2=CC3(CCNCC3)Oc3cccc(O)c32)cc1 ?
No

Please share the test call associated with CCC(=O)O[C@@H]1C=C2CCC3C(CCC4(C)C3CC[C@@H]4OC(=O)CC)C2CC1 (stereo partly drawn) .
No

Please state the recorded outcome for this compound: C[N+](C)(C)CC(=O)O
No

Please state the recorded outcome for this compound: CC[C@@H](C(N)=O)N1CCCC1=O
No

For CCO/N=C(\CC)C1=C(O)CC(c2c(C)cc(C)cc2C)CC1=O (stereo not drawn) , what call appears in the results of this test?
No

// return assay outcome for O=C(Nc1ccncc1)C(=O)c1cn(Cc2ccc(Cl)cc2)c2ccccc12
Yes

What was the test verdict on O=c1[nH]c2ccccc2n1C1CCN(Cc2ccc(-c3[nH]c4cc5ncnc5cc4nc3-c3ccccc3)cc2)CC1 ?
Yes

How did this test come out for C1=C2CCCN[C@H]2[C@@H]2C[C@H]1[C@@H]1CCCCN1C2 ?
No

Short answer needed: outcome of this test for CCOP(=O)(NC(C)C)Oc1ccc(SC)c(C)c1 (stereo not drawn) ?
No

What outcome does the record of this test show for CNCCc1ccc(O)c(O)c1 ?
No

Values were extracted from PubChem BioAssay (NCATS).
